Taken from patent US8952024B2.

# Test system: wheat (Triticum aestivum)
# assay-summary: Test B pre-/postemergence plant response
# Format: in vivo
# test-settings: 31 g ai/ha, postemergence; scale 0 to 100, 0 is no effect, 100 is complete control
Reported Plant response rating, Wheat values for the following compounds.

smiles-record: CC(C)n1c(-c2ccccc2)ncc(C(=O)C2=C(O)CCCC2=O)c1=O
Plant response rating, Wheat: 0
//
smiles-record: CCCn1c(-c2cccs2)ncc(C(=O)C2=C(O)CCCC2=O)c1=O
Plant response rating, Wheat: 0
//
smiles-record: O=C1CCCC(O)=C1C(=O)c1cnc(-c2ccsc2)n(-c2ccccc2)c1=O
Plant response rating, Wheat: 0
//
smiles-record: Cc1cc(-n2c(-c3ccccc3)ncc(C(=O)C3=C(O)CCCC3=O)c2=O)ccc1F
Plant response rating, Wheat: 20

====

# System: morningglory (Ipomoea spp.)
# assay-summary: Test A pre-/postemergence plant response
# Type: in vivo
# test-settings: Postemergence, 500 g ai/ha; 0 to 100 scale, 0 = no effect, 100 = complete control; approx. ten days
Reported Plant response rating, Morningglory values for the following compounds.

compound: O=C1CCCC(O)=C1C(=O)c1cnc(-c2cccc(Cl)c2)n(CC2CCCO2)c1=O (centres unmarked)
Plant response rating, Morningglory: 100

compound: O=C1CCCC(O)=C1C(=O)c1cnc(-c2ccccc2Br)n(-c2ccccc2)c1=O
Plant response rating, Morningglory: 100

compound: O=C1CCCC(O)=C1C(=O)c1cnc(-c2ccsc2)n(-c2ccccc2)c1=O
Plant response rating, Morningglory: 100

compound: COCCn1c(-c2cccc(Cl)c2)ncc(C(=O)C2=C(O)CCCC2=O)c1=O
Plant response rating, Morningglory: 100

compound: Cc1cc(-n2c(-c3ccccc3)ncc(C(=O)C3=C(O)CCCC3=O)c2=O)ccc1F
Plant response rating, Morningglory: 100

compound: O=C1CCCC(O)=C1C(=O)c1cnc(-c2ccccc2)n(-c2cccc(Br)c2)c1=O
Plant response rating, Morningglory: 100

compound: COCCCn1c(-c2cccc(Br)c2)ncc(C(=O)C2=C(O)CCCC2=O)c1=O
Plant response rating, Morningglory: 100

compound: CCCCn1c(-c2cccc(C)c2)ncc(C(=O)C2=C(O)CCCC2=O)c1=O
Plant response rating, Morningglory: 100

compound: COCC(C)n1c(-c2ccccc2)ncc(C(=O)C2=C(O)CCCC2=O)c1=O (centres unmarked)
Plant response rating, Morningglory: 100

compound: CSc1ncc(C(=O)C2=C(O)CCCC2=O)c(=O)n1-c1ccccc1
Plant response rating, Morningglory: 50

compound: Cn1c(-c2ccccc2)ncc(C(=O)C2=C(O)CCCC2=O)c1=O
Plant response rating, Morningglory: 90

compound: CCCCn1c(-c2cccc(Cl)c2)ncc(C(=O)C2=C(O)CCCC2=O)c1=O
Plant response rating, Morningglory: 90

compound: COCCn1c(-c2cccc(F)c2)ncc(C(=O)C2=C(O)CCCC2=O)c1=O
Plant response rating, Morningglory: 100

compound: CCCCn1c(-c2cccc(F)c2)ncc(C(=O)C2=C(O)CCCC2=O)c1=O
Plant response rating, Morningglory: 80

compound: Cc1ccc(Cl)cc1-n1c(-c2cccc(Br)c2)ncc(C(=O)C2=C(O)CCCC2=O)c1=O
Plant response rating, Morningglory: 70

compound: COCCn1c(-c2cc(F)cc(F)c2)ncc(C(=O)C2=C(O)CCCC2=O)c1=O
Plant response rating, Morningglory: 100

compound: O=C1CCCC(O)=C1C(=O)c1cnc(-c2ccccc2)n(-c2ccccc2F)c1=O
Plant response rating, Morningglory: 80
